experiment: Metabolic stability in human liver microsomes assessed as half life at 10 uM […] in presence of NADPH by LC-MS/MS analysis; assay type: ADME, Microsome
In this section, each of the compounds is paired with its reported half-life at 10 µM.

Task: Quickly give me recorded half-life at 10 µM for `Oc1c(-c2nnc(N[C@@H]3CCCN(C4CC(F)(F)C4)C3)c3c2C2CCC3CC2)ccc2occc12`
Result: 0.745 h

Task: Quickly give me recorded half-life at 10 µM for `Oc1c(-c2nnc(N[C@@H]3CCCC[C@H]3O)c3c2C2CCC3CC2)ccc2occc12`
Result: > 2 h

Task: Quickly give me recorded half-life at 10 µM for `OCCN1CCC[C@@H](Nc2nnc(-c3ccc4occc4c3O)c3c2C2CCC3CC2)C1`
Result: > 2 h

Task: Quickly give me recorded half-life at 10 µM for `[2H]C([2H])([2H])C([2H])([2H])N1CCC[C@@H](Nc2nnc(-c3ccc4occc4c3O)c3c2C2CCC3CC2)C1`
Result: > 2 h

Task: Quickly give me recorded half-life at 10 µM for `CN1C[C@H](F)C[C@@H](Nc2nnc(-c3ccc4occc4c3O)c3c2C2CCC3CC2)C1`
Result: > 2 h

Task: Quickly give me recorded half-life at 10 µM for CC(CO)N1CCC[C@@H](Nc2nnc(-c3ccc4occc4c3O)c3c2C2CCC3CC2)C1 (stereo partly drawn)
Result: > 2 h

Others:
Task: Quickly give me recorded half-life at 10 µM for `Oc1c(-c2nnc(N[C@@H]3CCC[C@H](O)C3)c3c2C2CCC3CC2)ccc2occc12`
Result: 1.16 h

Task: Quickly give me recorded half-life at 10 µM for `CCN1CCC[C@@H](Nc2nnc(-c3ccc4occc4c3O)c3c2C2CCC3CC2)C1`
Result: > 2 h

###

biological target: hERG (KCNH2) (Homo sapiens, UniProt Q12809); assay: Inhibition of human ERG at 20 uM relative to control
Sequence (Q12809 whole entry): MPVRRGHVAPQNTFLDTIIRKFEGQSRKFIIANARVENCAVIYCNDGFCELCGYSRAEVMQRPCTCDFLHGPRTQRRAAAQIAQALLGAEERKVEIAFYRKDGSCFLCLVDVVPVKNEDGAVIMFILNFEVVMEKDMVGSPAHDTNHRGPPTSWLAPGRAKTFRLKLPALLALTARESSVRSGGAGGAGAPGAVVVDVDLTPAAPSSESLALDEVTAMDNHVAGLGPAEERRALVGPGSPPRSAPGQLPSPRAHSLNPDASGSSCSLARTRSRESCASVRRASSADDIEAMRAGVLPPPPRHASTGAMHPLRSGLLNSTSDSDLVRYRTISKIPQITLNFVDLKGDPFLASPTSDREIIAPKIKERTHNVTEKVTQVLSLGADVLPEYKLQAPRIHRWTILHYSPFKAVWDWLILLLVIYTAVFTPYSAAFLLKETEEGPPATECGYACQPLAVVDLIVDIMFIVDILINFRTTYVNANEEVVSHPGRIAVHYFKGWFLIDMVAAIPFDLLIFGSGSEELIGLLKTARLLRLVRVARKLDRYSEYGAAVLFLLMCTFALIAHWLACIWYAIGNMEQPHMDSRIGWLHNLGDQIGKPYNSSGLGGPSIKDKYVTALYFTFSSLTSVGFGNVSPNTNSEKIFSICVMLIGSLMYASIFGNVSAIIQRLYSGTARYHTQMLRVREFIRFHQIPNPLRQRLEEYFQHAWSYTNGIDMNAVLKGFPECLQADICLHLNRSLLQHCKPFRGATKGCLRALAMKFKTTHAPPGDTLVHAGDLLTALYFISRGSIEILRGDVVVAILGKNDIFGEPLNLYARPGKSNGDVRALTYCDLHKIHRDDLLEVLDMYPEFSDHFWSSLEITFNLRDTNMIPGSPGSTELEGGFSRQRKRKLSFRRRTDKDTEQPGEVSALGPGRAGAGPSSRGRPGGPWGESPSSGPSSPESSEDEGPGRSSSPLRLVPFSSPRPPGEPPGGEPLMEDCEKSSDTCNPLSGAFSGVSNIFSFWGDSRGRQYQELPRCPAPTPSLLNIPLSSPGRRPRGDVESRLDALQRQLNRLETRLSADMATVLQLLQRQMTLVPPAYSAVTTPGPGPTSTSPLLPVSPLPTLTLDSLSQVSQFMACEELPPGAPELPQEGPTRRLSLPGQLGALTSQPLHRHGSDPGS
In this section, each of the compounds is paired with its reported inhibition at 20 µM.
Answer with a number only, understood to be in %.

Task: Quickly give me recorded inhibition at 20 µM for CC(CO)N1CCC[C@@H](Nc2nnc(-c3ccc4occc4c3O)c3c2C2CCC3CC2)C1 (stereo not given in full)
Result: 71

Task: Quickly give me recorded inhibition at 20 µM for `CN1C[C@H](F)C[C@@H](Nc2nnc(-c3ccc4occc4c3O)c3c2C2CCC3CC2)C1`
Result: 78.5

Task: Quickly give me recorded inhibition at 20 µM for `Oc1cc(Cl)ccc1-c1nnc(N[C@@H]2CCCN(C3CC(F)(F)C3)C2)c2c1C1CCC2CC1`
Result: 23.9

Task: Quickly give me recorded inhibition at 20 µM for `Cc1ccc(-c2nnc(N[C@@H]3CCCN(C4CC(F)(F)C4)C3)c3c2C2CCC3CC2)c(O)c1`
Result: 63.8

// next entry
Task: Quickly give me recorded inhibition at 20 µM for `OCCN1CCC[C@@H](Nc2nnc(-c3ccc4occc4c3O)c3c2C2CCC3CC2)C1`
Result: 49.1

###

assay: Oral bioavailability in BALB/c mouse at 5 mg/kg measured upto 24 hrs by LC-MS/MS analysis; assay type: ADME, organism-based; conditions: in vivo
MEASUREMENT_TYPE: bioavailability (%)
Answer with a number only, understood to be in %.

Task: Quickly give me recorded bioavailability for `OCCN1CCC[C@@H](Nc2nnc(-c3ccc4occc4c3O)c3c2C2CCC3CC2)C1`
Result: 62
